Attribution: PubChem BioAssay

Catalogue of molecules with associated z-score
test: CREB reporter modulators under forskolin, primary screen, cell-based, PC12, CRE-LacZ reporter, forskolin-stimulated (AID 1146); details: luminescence, 4.5 h, higher = more signal, called active from +8 up or from −8 down;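 note: PC12 cells with 6xCRE LacZ reporter stimulated by forskolin 10 µM; beta-galactosidase reporter signal reflecting CREB driven transcription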
Kindly provide the number alone.

The following molecules have reported results that may help.
Task: Any idea what z-score was measured for COc1cc(OC)c(C(O)C2C=CC3C(=O)N(c4ccccc4)C(=O)C3N2Nc2ccc(C#N)cc2)cc1Br (stereo not drawn) ?
Result: -0.475

Task: Moving on to the next molecule: C[C@H]1C2=C3C(CC[C@H]4C(OCc5ccc(F)cc5C(F)(F)F)OC[C@](C)([C@@H]34)N(C(=O)OC(C)(C)C)C2)C(CO)C1CO (stereo partly drawn)
Result: 0.677

Task: What about "C=CC[C@H](OC(=O)Nc1ccc(OC)cc1)c1ccc(O)c2ccccc12" ?
Result: 5.57

Continuing:
Task: Recorded z-score of "COc1cc(CO)cc(I)c1O[C@H]1C=C(C(=O)NCCO)C[C@@H](N(CC2CCCCC2)C(=O)c2ccc(C(F)(F)F)cc2)[C@@H]1O" , please.
Result: -1.22

Task: Try this molecule too: "CC(C)CNC(=O)[C@@H]1c2ccccc2C(=O)N(Cc2cc(F)cc(C(F)(F)F)c2)[C@H]1c1ccc(CO)cc1"
Result: -0.372

Task: Again, but for "O=C1O[C@@H](c2ccccc2)[C@@H](c2ccccc2)N2[C@@H](c3ccc(O)cc3)[C@]3(C(=O)Nc4ccc(C#CCCO)cc43)[C@@H](C(=O)Nc3nc4ccccc4s3)[C@H]12"
Result: 1.93

Task: How about "CCOC(=O)C[C@H]1[C@H](OC(=O)c2ccc(C(=O)c3ccccc3)cc2)[C@@H](NC(=O)c2ccc3ccccc3c2)c2cc(OCCCO)ccc2N1C(=O)c1ccccc1" ?
Result: -0.506

Task: What would you report for "C=CCN1Cc2ccccc2C[C@@]2(N=C(c3ccc(OCCCO)cc3)O[C@H]2c2ccccc2)C1=O" ?
Result: -1.51

###

test: small-molecule binders of probe aInhba, primary screen, biochemical, small-molecule microarray, 635/667 nm fluorescence (AID 1148); settings: higher = more signal;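 note: score merges 667nm spot fluorescence with signal-to-noise for antibody binding to printed compounds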
Each entry gets not satisfied if its composite z-score stays under -0.08, and satisfied if its composite z-score is -0.08 or above.

For orientation, consider the following solved cases.
Task: Confirm if composite z-score reported for the molecule "COc1ccc(CCNC(=O)[C@@]2(Sc3ccc(C)cc3)CC(=O)N(Cc3cc(C(F)(F)F)cc(C(F)(F)F)c3)[C@@H]2c2ccc(CO)cc2I)cc1" is -0.08 or above.
Result: satisfied

Task: Next entry: "NCCCCCCNC(=O)[C@H]1C[C@H]2C(=O)N[C@@H](Cc3ccccc3)C(=O)N2[C@H]1c1ccc(O)cc1"
Result: satisfied

Task: Another molecule to check: "CCOC(=O)C[C@H]1[C@H](OC(=O)c2ccc(-c3ccccc3)cc2)[C@@H](NC(=O)c2ccc3ccccc3n2)c2cc(OCCCO)ccc2N1C(=O)c1ccccc1"
Result: satisfied

Task: Another molecule to look at: "COc1ccc([Si](C)(C)[C@H]2[C@H](CCn3cc(CCO)nn3)O[C@@]3(C(=O)N(Cc4ccc(N5C(=O)c6cccc7cccc5c67)cc4)c4ccccc43)[C@@H]2C)cc1"
Result: not satisfied

Next molecule, please.
Task: # bool: composite z-score of "CCOC(=O)C[C@H]1[C@H](OC(=O)c2ccc(-c3ccccc3)cc2)[C@@H](NC(=O)C2CCCCC2)c2cc(OCCCO)ccc2N1C(=O)c1ccccc1" >= -0.08
Result: not satisfied
